Biological target: Cytochrome P450 2C19 (Homo sapiens) (UniProt P33261)
Sequence (P33261 whole entry, looked up): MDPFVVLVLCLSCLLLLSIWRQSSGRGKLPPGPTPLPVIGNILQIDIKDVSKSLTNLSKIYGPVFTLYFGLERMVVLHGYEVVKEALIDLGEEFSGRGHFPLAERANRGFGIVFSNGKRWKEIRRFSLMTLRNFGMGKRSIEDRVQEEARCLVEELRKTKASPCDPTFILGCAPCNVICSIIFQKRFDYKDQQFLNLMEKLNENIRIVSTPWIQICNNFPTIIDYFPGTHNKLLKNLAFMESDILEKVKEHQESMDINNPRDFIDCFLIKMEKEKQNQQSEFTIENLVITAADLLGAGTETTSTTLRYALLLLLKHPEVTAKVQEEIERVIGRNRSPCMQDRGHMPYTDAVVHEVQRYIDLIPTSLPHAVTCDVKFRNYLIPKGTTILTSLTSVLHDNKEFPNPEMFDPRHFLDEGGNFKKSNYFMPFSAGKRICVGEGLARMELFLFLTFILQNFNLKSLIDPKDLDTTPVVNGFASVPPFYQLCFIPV
Assay: Cytochrome P450 Family 2 Subfamily C Member 19 (CYP2C19) small molecule antagonists: luciferase reporter qHTS assay (AID 1671197); also: nearly all actives have a fitted effect of over 65% in size
Settings: P450-Glo CYP2C19 enzyme, luciferin luminescence, 1 h; series mostly up to 115 µM
Results filed as inconclusive are left out. Activity calls are given as the source filed them. Calls follow the shape of the dose curve; as a rule, active = well fitted inhibition curve with a large enough effect in the repeat runs; inconclusive = weak or mixed curves; inactive = no such curve, though single readings can be large or run the other way.
Hi! Could you answer with just one of these? active, inactive

Sample answers from the record:
Hi, sorry to bother you, what did the test record for `O=C1c2ccccc2-c2ccccc21` ?
active

Hi, sorry to bother you, what did the test record for `C=CCOc1c(Br)cc(C(C)(C)c2cc(Br)c(OCC=C)c(Br)c2)cc1Br` ?
active

Hi, sorry to bother you, what did the test record for `COc1ccc(OC)c(NC(=O)CC(C)=O)c1` ?
active

Hi, sorry to bother you, what did the test record for CC(C)COC(=O)CC(C(=O)OCC(C)C)S(=O)(=O)O (stereo not drawn) ?
inactive

Next:
Hi, sorry to bother you, what did the test record for `C[CH2][Ge]([Cl])([CH2]C)[CH2]C` ?
inactive

Hi, sorry to bother you, what did the test record for `SCCSCCS` ?
inactive

Hi, sorry to bother you, what did the test record for CCC(=O)OCCC(C)CCC=C(C)C (stereo not drawn) ?
active

Hi, sorry to bother you, what did the test record for `C=CCOc1cc(Cl)ccc1C(=O)NCCN(CC)CC` ?
active

Hi, sorry to bother you, what did the test record for `CCCCCCCCCCCCCCCCCCN(C)C` ?
inactive

Hi, sorry to bother you, what did the test record for C1=CCC(c2ccccc2)CC1 (stereo not drawn) ?
inactive

* * *

Experiment: qHTS assay for small molecules that induce genotoxicity in human embryonic kidney cells expressing luciferase-tagged ATAD5 - cell viability (AID 651634); also: % is scaled to controls: 0 for no effect and ±100 for the full control effect; nearly all actives have a fitted effect of over 25% in size
Conditions: HEK293T ATAD5-luc cells viability, CellTiter-Fluor, 15.5 h; series mostly up to 83.3 µM
Results filed as inconclusive are left out. Active and inactive are the calls of the source. Calls come from the whole dose curve.
Hi! Could you answer with just one of these? active, inactive

Sample answers from the record:
Hi, sorry to bother you, what did the test record for `CCc1nccnc1C` ?
inactive

Hi, sorry to bother you, what did the test record for `NS(=O)(=O)c1ccc(Cl)c(S(N)(=O)=O)c1` ?
inactive

Hi, sorry to bother you, what did the test record for `Cc1cc(O)c2c(c1)C(=O)c1cccc(O)c1C2=O` ?
inactive

Hi, sorry to bother you, what did the test record for `CCCCCCCCCCCCOC(C)=O` ?
inactive

Hi, sorry to bother you, what did the test record for `Nc1cc(C(=O)O)ccc1Cl` ?
inactive

Next:
Hi, sorry to bother you, what did the test record for `CCOC(=O)CCCCCCCCC(=O)OCC` ?
inactive

Hi, sorry to bother you, what did the test record for `C=C[Si](C)(C)O[Si](C)(C)C=C` ?
inactive

Hi, sorry to bother you, what did the test record for `O=S(=O)(O)CCO` ?
inactive

Hi, sorry to bother you, what did the test record for C[N+](C)(C)CC(O)CCl (stereo not drawn) ?
inactive

Hi, sorry to bother you, what did the test record for `Cc1cc(C)cc([N+](=O)[O-])c1` ?
inactive

Hi, sorry to bother you, what did the test record for `Nc1ccc(S(=O)(=O)NC(=O)c2ccccc2)cc1` ?
inactive

Hi, sorry to bother you, what did the test record for `Cc1nc([N+](=O)[O-])cn1-c1ccc([N+](=O)[O-])cc1` ?
inactive

Hi, sorry to bother you, what did the test record for CCCCCCCCCOCC1CO1 (stereo not drawn) ?
inactive

Hi, sorry to bother you, what did the test record for `OCCCCCCCl` ?
inactive

* * *

Assay: qHTS assay to identify small molecule agonists of the hypoxia (HIF-1) signaling pathway - cell viability counter screen (AID 1224844); also: % is scaled to controls: 0 for no effect and ±100 for the full control effect; nearly all actives have a fitted effect of over 50% in size
Conditions: HRE-bla ME-180 viability, CellTiter-Glo luminescence, 17 h; series mostly up to 76.8 µM
Records with an inconclusive call do not appear. Activity calls are given as the source filed them. Calls follow the shape of the full dose curve.
Parameter: activity change, negative = cytotoxicity

These solved cases illustrate the format of a correct answer.
The recorded activity change, negative = cytotoxicity for `O=C(O)c1c(Cl)ccc(Cl)c1Cl` is inactive

The recorded activity change, negative = cytotoxicity for O=C1NC2NC(=O)NC2N1 (stereo unspecified) is inactive

The recorded activity change, negative = cytotoxicity for `CC(=O)OCC(=O)[C@@]1(O)[C@H](OC(C)=O)C[C@H]2[C@@H]3CCC4=CC(=O)C=C[C@]4(C)[C@@]3(F)[C@@H](O)C[C@@]21C` is inactive

The recorded activity change, negative = cytotoxicity for `CC(=O)Nc1ncc([N+](=O)[O-])s1` is inactive

The recorded activity change, negative = cytotoxicity for `CO[Si](CCCCl)(OC)OC` is inactive

Next, consider the following compound.
The recorded activity change, negative = cytotoxicity for `CC(C)SCc1ccco1` is inactive

* * *

Assay: qHTS assay to test for compound auto fluorescence at 535 nm (green) in HEK293 cells (AID 720680); also: % is scaled to controls: 0 for no effect and ±100 for the full control effect
Settings: green autofluorescence 485/535 nm; series mostly up to 91.3 µM
Calls of active or inactive are those of the source. Calls follow the shape of the dose curve; as a rule, active = well fitted curve in the direction sought with a large enough effect in the repeat runs; inconclusive = weak or mixed curves; inactive = flat fitted curve, though single readings scatter.
Parameter: fluorescence, % of fluorescein

These solved cases illustrate the format of a correct answer.
The recorded fluorescence, % of fluorescein for CCC(C)(CCC(C)C)C(=O)[O-].CCC(C)(CCC(C)C)C(=O)[O-].[Zn+2] (configuration not stated) is inactive

The recorded fluorescence, % of fluorescein for `C1=C\CC/C=C\CC/1` is inactive

The recorded fluorescence, % of fluorescein for CCC1Nc2cc(Cl)c(S(N)(=O)=O)cc2S(=O)(=O)N1 (configuration not stated) is inactive

The recorded fluorescence, % of fluorescein for `c1ccc(CNc2ncnc3nc[nH]c23)cc1` is inactive

The recorded fluorescence, % of fluorescein for `CCCCCCCCCCCCCCCCI` is 0.0243% [at 18.6 µM] (inactive)

The recorded fluorescence, % of fluorescein for `Cc1ccccc1C` is inactive

The recorded fluorescence, % of fluorescein for `CN[C@@H]1[C@H](O)[C@H](NC)[C@H]2O[C@@]3(O)C(=O)C[C@@H](C)O[C@H]3O[C@@H]2[C@H]1O` is 0.0714% [at 18.6 µM] (inactive)

The recorded fluorescence, % of fluorescein for CC(=O)N(CC(O)CO)c1c(I)c(C(=O)NCC(O)CO)c(I)c(C(=O)NCC(O)CO)c1I (configuration not stated) is inactive

The recorded fluorescence, % of fluorescein for `CCNC(=O)/C=C/c1cccc(Br)c1` is inactive

The recorded fluorescence, % of fluorescein for `CO/N=C(/C(=O)N[C@@H]1C(=O)N2C(C(=O)O)=C(Cn3nnc(C)n3)CS[C@H]12)c1csc(N)n1` is inactive

Next:
The recorded fluorescence, % of fluorescein for `CN(C1CCCCC1)S(=O)(=O)c1ccccc1N` is inactive

The recorded fluorescence, % of fluorescein for `CCCCC/C=C/CC(=O)OC` is inactive

The recorded fluorescence, % of fluorescein for `CCOC(=O)CCCCCCCCC(=O)OCC` is inactive

The recorded fluorescence, % of fluorescein for `CCCCC[Si](OCC)(OCC)OCC` is inactive

The recorded fluorescence, % of fluorescein for COC(OC)C(C)c1ccccc1 (configuration not stated) is inactive

The recorded fluorescence, % of fluorescein for `Cc1cc(C)cc([N+](=O)[O-])c1` is inactive

The recorded fluorescence, % of fluorescein for `C[C@H](CCC(=O)NCC(=O)O)[C@H]1CC[C@H]2[C@@H]3[C@H](O)C[C@@H]4C[C@H](O)CC[C@]4(C)[C@H]3C[C@H](O)[C@]12C` is inactive

The recorded fluorescence, % of fluorescein for `O=C(O)c1ccccc1C(=O)OCc1ccccc1` is inactive

The recorded fluorescence, % of fluorescein for Cc1ncc([N+](=O)[O-])n1CC(O)CCl (configuration not stated) is -0.0185% [at 18.6 µM] (inactive)

The recorded fluorescence, % of fluorescein for `CCN1CN(CC)CN(CC)C1` is inactive

The recorded fluorescence, % of fluorescein for `NC(=O)NNC(N)=O` is inactive

The recorded fluorescence, % of fluorescein for NS(=O)(=O)c1cc2c(cc1Cl)NC(C(Cl)Cl)NS2(=O)=O (configuration not stated) is 0.0129% [at 18.6 µM] (inactive)

The recorded fluorescence, % of fluorescein for `COc1ccc(NS(=O)(=O)c2ccc(N)cc2)nn1` is -0.0152% [at 18.6 µM] (inactive)

The recorded fluorescence, % of fluorescein for `CCCCCCCCCCC` is inactive

* * *

Target: Peroxisome proliferator-activated receptor gamma (Homo sapiens)
Test: qHTS assay to identify small molecule agonists of the peroxisome proliferator-activated receptor gamma (PPARg) signaling pathway (AID 743094); also: % is scaled to controls: 0 for no effect and ±100 for the full control effect
Settings: HEK293H PPARg-UAS-bla, beta-lactamase FRET ratio, 17 h; series mostly up to 57 µM
Records with an inconclusive call do not appear. Activity calls are given as the source filed them. Calls follow the shape of the dose curve; as a rule, active = well fitted activation curve with a large enough effect in the signal ratio in the repeat runs (not every such curve was filed as active); inconclusive = weak or mixed curves, or effect the other way; inactive = no such curve, though single readings can be large or run the other way; the % refers to the signal ratio.
Parameter: activation

The recorded activation for `CCS(=O)(=O)CCn1c([N+](=O)[O-])cnc1C` is inactive

The recorded activation for `FC(F)(F)c1ccc(Cl)cc1Cl` is inactive

The recorded activation for `O=C(O)c1ccccc1C(=O)OCc1ccccc1` is inactive

The recorded activation for `Cc1ccccc1C` is inactive
